Entries and their Maximum MFI
target system: T1, human CD40 on cells (human, UniProt P25942 21-277)
T1 construct: whole, on cells; The cell line used is named in each row's assay; also called hCD40; TNFRSF5
T1 sequence (P25942 21-277): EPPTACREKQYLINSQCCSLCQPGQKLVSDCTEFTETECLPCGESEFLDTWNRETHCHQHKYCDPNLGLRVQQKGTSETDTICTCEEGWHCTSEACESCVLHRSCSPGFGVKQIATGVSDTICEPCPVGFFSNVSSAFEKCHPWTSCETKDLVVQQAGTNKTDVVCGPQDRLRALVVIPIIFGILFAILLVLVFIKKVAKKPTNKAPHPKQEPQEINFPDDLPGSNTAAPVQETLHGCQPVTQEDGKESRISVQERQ
assay explanation: FACS, CHO-K1/hCD40 cells
Lab book: enter the figure in MFI, no units written.

Some solved entries appear below for comparison.
>>> data_value("PR006501 (antibody, human IgG1, kappa, V domains shown, PR003379 variant L:N92Q; human IgG1 L234A, L235A, G237A) VH: QVQLVQSGAEVKKPGASVKVSCKASGYTFAGYYMYWVRQAPGQGLEWMGWINPDSGAPTYAQKFQGRVTMTRDTSISTAYMELSRLRSDDTAVYYCAREKIYYGSGNYYPSFDYWGQGTLVTVSS VL: DIQLTQSPSFLSASVGDRVTITCRASQGISSYLAWYQQKPGKAPKLLIYAASTLQSGVPSRFSGSGSGTEFTLTISSLQPEDFATYYCQQLQSYPWTFGQGTKVEIKR")
91000
>>> data_value("PR006507 (antibody, human IgG1, kappa, V domains shown, PR003379 variant L:S93E; human IgG1 L234A, L235A, G237A) VH: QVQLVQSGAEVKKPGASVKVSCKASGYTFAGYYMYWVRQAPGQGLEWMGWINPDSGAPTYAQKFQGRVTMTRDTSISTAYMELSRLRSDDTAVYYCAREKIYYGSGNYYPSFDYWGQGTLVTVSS VL: DIQLTQSPSFLSASVGDRVTITCRASQGISSYLAWYQQKPGKAPKLLIYAASTLQSGVPSRFSGSGSGTEFTLTISSLQPEDFATYYCQQLNEYPWTFGQGTKVEIKR")
81800
>>> data_value("PR006514 (antibody, human IgG1, kappa, V domains shown, PR003379 variant L:S93V; human IgG1 L234A, L235A, G237A) VH: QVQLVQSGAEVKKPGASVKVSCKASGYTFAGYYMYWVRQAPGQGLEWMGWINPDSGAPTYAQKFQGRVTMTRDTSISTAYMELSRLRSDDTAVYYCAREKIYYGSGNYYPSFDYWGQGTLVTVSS VL: DIQLTQSPSFLSASVGDRVTITCRASQGISSYLAWYQQKPGKAPKLLIYAASTLQSGVPSRFSGSGSGTEFTLTISSLQPEDFATYYCQQLNVYPWTFGQGTKVEIKR")
86900

// recorded Maximum MFI for PR006512 (antibody, human IgG1, kappa, V domains shown, PR003379 variant L:S93T; human IgG1 L234A, L235A, G237A) VH: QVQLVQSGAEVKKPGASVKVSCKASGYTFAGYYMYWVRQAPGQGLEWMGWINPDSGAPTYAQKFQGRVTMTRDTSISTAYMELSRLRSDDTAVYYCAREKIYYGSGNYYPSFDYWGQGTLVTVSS VL: DIQLTQSPSFLSASVGDRVTITCRASQGISSYLAWYQQKPGKAPKLLIYAASTLQSGVPSRFSGSGSGTEFTLTISSLQPEDFATYYCQQLNTYPWTFGQGTKVEIKR : 81600

Item: PR006506 (antibody, human IgG1, kappa, V domains shown, PR003379 variant L:S93F; human IgG1 L234A, L235A, G237A) VH: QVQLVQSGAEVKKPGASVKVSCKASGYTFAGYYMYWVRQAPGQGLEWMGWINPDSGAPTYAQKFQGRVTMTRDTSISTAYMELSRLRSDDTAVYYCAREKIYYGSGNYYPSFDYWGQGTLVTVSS VL: DIQLTQSPSFLSASVGDRVTITCRASQGISSYLAWYQQKPGKAPKLLIYAASTLQSGVPSRFSGSGSGTEFTLTISSLQPEDFATYYCQQLNFYPWTFGQGTKVEIKR | Maximum MFI: 82800
